Answer each item with its documented melting point.

Exam item: Given the entry O=C(Nc1ccc(CN2C(=O)C3CCCC3N(C(=O)CN3C(=O)c4ccccc4C3=O)c3ccccc32)cc1)Oc1ccccc1 (stereo unspecified) , report its measured melting point.
Marked response: 185 to 187 °C

Exam item: Given the entry O=C1c2ccccc2C(=O)c2oc(-c3ccccc3Cl)nc21 , report its measured melting point.
Marked response: 216 °C

Exam item: Given the entry COC1(OC)C=CC=CC1C1c2cccc(O)c2C(=O)c2c(O)cccc21 (stereo unspecified) , report its measured melting point.
Marked response: 152 °C

Exam item: Given the entry COCCOCCNc1ncnc2c1cnn2-c1cc(C)cc(C)c1 , report its measured melting point.
Marked response: 90.4 °C

Exam item: Given the entry COC(=O)c1c(NC(C)C)cccc1S(=O)(=O)NC(C)(C)C , report its measured melting point.
Marked response: 110 to 112 °C

Exam item: Given the entry COc1ccc(OC)c(-c2nnc3ccc(Cl)nn23)c1 , report its measured melting point.
Marked response: 111 to 112 °C

Exam item: Given the entry Nc1ccc2nc(O)c(O)nc2c1N , report its measured melting point.
Marked response: > 300 °C

Exam item: Given the entry CCOC(=O)C1CCCN(CCC2CCc3cc(OCc4ccc(-c5ccccc5)cc4)ccc3C2)C1 (stereo unspecified) , report its measured melting point.
Marked response: 97 to 98 °C

Exam item: Given the entry CC(C)(C)OC(=O)N1CC(CCl)c2c1cc(N)c1ccccc21 (stereo unspecified) , report its measured melting point.
Marked response: > 200 °C

Exam item: Given the entry N#Cc1[nH]c2ccc(Cl)cc2c1-c1ccccc1 , report its measured melting point.
Marked response: 115 to 117 °C

Exam item: Given the entry CCCCC12CCC3C4CCC(=O)C=C4CCC3C1CCC2(O)CC (stereo unspecified) , report its measured melting point.
Marked response: 78 to 80 °C

Exam item: Given the entry CNC(=O)N1CCC(=NO)c2cc(Cl)ccc21 , report its measured melting point.
Marked response: 211 to 212 °C

Exam item: Given the entry N#Cc1ccc(-c2nc3c(C(N)=O)cccc3[nH]2)cc1 , report its measured melting point.
Marked response: > 310 °C

Exam item: Given the entry COc1cc(N[C@H]2CC[C@H](NC3CCCC3)CC2)c(Cl)cc1C(N)=O , report its measured melting point.
Marked response: 169 to 171 °C

Exam item: Given the entry NCc1cccc(Nc2n[nH]c3ncnc(Nc4cccc(Cl)c4)c23)c1 , report its measured melting point.
Marked response: 212 to 214 °C

Exam item: Given the entry Cn1cc(C2=C(c3c4n(c5ccccc35)CCC(COS(C)(=O)=O)C4)C(=O)NC2=O)c2ccccc21 (stereo unspecified) , report its measured melting point.
Marked response: 259 to 261 °C

Exam item: Given the entry CC(=O)Oc1ccc(C(=O)NNC(=O)c2occ(-c3ccccc3)c2-c2ccccc2)cc1C#N , report its measured melting point.
Marked response: 131 to 133 °C

Exam item: Given the entry COc1cc2c(cc1O)CCC1C2CCC2(C)C1CCC21OCCO1 (stereo unspecified) , report its measured melting point.
Marked response: 150 to 151 °C

Exam item: Given the entry Oc1ccnn1-c1c(Cl)cc(C(F)(F)F)cc1Cl , report its measured melting point.
Marked response: 223 to 225 °C

Exam item: Given the entry CC(=O)Nc1cc(C)c([N+](=O)[O-])cc1CCOC(C)=O , report its measured melting point.
Marked response: 125 °C

Exam item: Given the entry CC(=O)N(O)C(C)c1ccc(C#Cc2cccs2)cc1 (stereo unspecified) , report its measured melting point.
Marked response: 128 to 129 °C
